assay: Timed organ biodistribution of [^64Cu]Cu-DOTATATE by ex vivo gamma counting; assay type: in vivo, mice; details: mouse, large intestine, intravenous, 1.85 MBq, total radioactivity; female Apoe^-/- mice 12 weeks on Western Diet, 5 min after injection, median (IQR), N=3-8; read-out: Tissue radioactivity, large intestine
measuredMetric: tissue uptake at 5 min (%ID/g)
Expressed in %ID/g, but write only the number.

Bench note: what tissue uptake at 5 min did C[C@@H](O)[C@H](NC(=O)[C@@H]1CSSC[C@H](NC(=O)[C@@H](Cc2ccccc2)NC(=O)CN2CCN(CC(=O)O)CCN(CC(=O)O)CCN(CC(=O)O)CC2)C(=O)N[C@@H](Cc2ccc(O)cc2)C(=O)N[C@H](Cc2c[nH]c3ccccc23)C(=O)N[C@@H](CCCCN)C(=O)N[C@@H]([C@@H](C)O)C(=O)N1)C(=O)O [[^64Cu]Cu-DOTATATE, metal not drawn] show?
1.3

====

assay: Organ biodistribution of [^68Ga]Ga-DOTATATE by ex vivo gamma counting; assay type: in vivo, New Zealand White rabbits; details: male, New Zealand White, rabbit, thoracic aorta, iv, 190 MBq, total radioactivity, male control rabbits, 200 min after tracer injection, median (IQR), N = 6; read-out: Tissue radioactivity, thoracic aorta
measuredMetric: tissue uptake at 200 min (%ID/g)
// return numeric value only (unit: %ID/g, not printed)

Endpoint output: tissue uptake at 200 min of C[C@@H](O)[C@H](NC(=O)[C@@H]1CSSC[C@H](NC(=O)[C@@H](Cc2ccccc2)NC(=O)CN2CCN(CC(=O)O)CCN(CC(=O)O)CCN(CC(=O)O)CC2)C(=O)N[C@@H](Cc2ccc(O)cc2)C(=O)N[C@H](Cc2c[nH]c3ccccc23)C(=O)N[C@@H](CCCCN)C(=O)N[C@@H]([C@@H](C)O)C(=O)N1)C(=O)O [[^68Ga]Ga-DOTATATE, metal not drawn] . Value?
0.004

====

experiment: Timed organ biodistribution of [^64Cu]Cu-DOTATATE by ex vivo gamma counting; type: in vivo, mice; conditions: mouse, large intestine, intravenous, 1.85 MBq, total radioactivity; female C57BL/6 mice, 1 min after injection, median (IQR), N=3-7; read-out: Tissue radioactivity, large intestine
measuredMetric: tissue uptake at 1 min (%ID/g)
Write the answer as a number in %ID/g, unit excluded.

So what's the measured tissue uptake at 1 min for this one? C[C@@H](O)[C@H](NC(=O)[C@@H]1CSSC[C@H](NC(=O)[C@@H](Cc2ccccc2)NC(=O)CN2CCN(CC(=O)O)CCN(CC(=O)O)CCN(CC(=O)O)CC2)C(=O)N[C@@H](Cc2ccc(O)cc2)C(=O)N[C@H](Cc2c[nH]c3ccccc23)C(=O)N[C@@H](CCCCN)C(=O)N[C@@H]([C@@H](C)O)C(=O)N1)C(=O)O [[^64Cu]Cu-DOTATATE, metal not drawn]
2.7

====

Assay: Timed organ biodistribution of [^64Cu]Cu-DOTATATE by ex vivo gamma counting
Format: in vivo, mice
Conditions: mouse, lymph node, intravenous, 1.85 MBq, total radioactivity; female Apoe^-/- mice 12 weeks on Western Diet, 5 min after injection, median (IQR), N=3-8; read-out: Tissue radioactivity, lymph node
Method: Wild-type and atherosclerotic animals were injected with approximately 1.85 MBq of [^64Cu]Cu-DOTATATE and euthanized at either 1, 5, 15, 30, 60 or 120 min after injection (Supplementary Fig. S1A) to evaluate the tracer’s biodistribution. […] Values were corrected for decay and normalized to tissue weight to express radioactivity concentration as percentage injected dose per gram (%ID/g). […] Plasma (supernatant) and cells (pellet) were gamma counted and expressed as percentage of total activity. […]
measuredMetric: tissue uptake at 5 min
Report as: number unit

Could you share which tissue uptake at 5 min value was measured for C[C@@H](O)[C@H](NC(=O)[C@@H]1CSSC[C@H](NC(=O)[C@@H](Cc2ccccc2)NC(=O)CN2CCN(CC(=O)O)CCN(CC(=O)O)CCN(CC(=O)O)CC2)C(=O)N[C@@H](Cc2ccc(O)cc2)C(=O)N[C@H](Cc2c[nH]c3ccccc23)C(=O)N[C@@H](CCCCN)C(=O)N[C@@H]([C@@H](C)O)C(=O)N1)C(=O)O [[^64Cu]Cu-DOTATATE, metal not drawn] ?
3.2 %ID/g

src = paper PMC9007951
